The origin of these recorded values is the supplement of paper PMC12042874.

assay: amyloid nucleation score (Sup35N fusion, yeast selection) (log enrichment); library NNK2; higher = more nucleation; inactive = no reads after selection;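 further: zero at mode of non-aggregating sequences after 7 days selection at 30°C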
parameter: amyloid nucleation score

Please review the following examples before continuing.
{"columns": ["substance", "amyloid nucleation score"],
 "data": [
  ["SYGFQVLDAKDVLMLAFVWA", 0.255],
  ["AIWYFFIRNYYPSLLQKRSL", 1.89],
  ["AYTFSNSVNVCCVGVLEVIV", 5.8],
  ["PLQPTQTYPFNSVFDGHKRV", "inactive"],
  ["SFSCNNSLDYKGNFS", 1.48]
]}

INPUT: May I ask what amyloid nucleation score has been recorded for "INKVFNCYFLFSGHIVGLRS" ?
OUTPUT: -0.321

INPUT: Record: "FFRGDVQYWRLILKYLCLLM"
OUTPUT: -1.28

INPUT: Field entry: "MMIFLGLTSFKFLMSAVNTM"
OUTPUT: 0.628

INPUT: Then this substance: "NNEFYRRYVGNYSLVMVMGN"
OUTPUT: -0.088

INPUT: One more substance: "SMIIQTQHI"
OUTPUT: 0.024

INPUT: Param item: "CGCCRTRGL"
OUTPUT: 2.94

* * *

assay: amyloid nucleation score (Sup35N fusion, yeast selection) (log enrichment); library NNK1; higher = more nucleation; inactive = no reads after selection
parameter: amyloid nucleation score
// no unit string in output, number only

{"columns": ["substance", "amyloid nucleation score"],
 "data": [
  ["YLFKSISCNSGRTRNQPKGQ", -0.195],
  ["ILVLYSVRWIEATR", -0.224],
  ["CSLILALPN", 0.951]
]}

INPUT: // lookup amyloid nucleation score for "GHSFGTVTDCVANQYNFLNI"
OUTPUT: 2.37

INPUT: # iterate: "VLFIFRSRFNVE"
OUTPUT: 3.47

* * *

assay: amyloid nucleation score (Sup35N fusion, yeast selection) (log enrichment); library NNK3; higher = more nucleation; inactive = no reads after selection
parameter: amyloid nucleation score

Known results for substances:
{"columns": ["substance", "amyloid nucleation score"],
 "data": [
  ["SWRHSCNTRSNDYNIDWE", "inactive"],
  ["QLHRENEVVRYVF", "inactive"],
  ["TACVFPLMFTTVPGFFFVVE", "inactive"],
  ["GDCFWSPDKNWIALEVFQTF", "inactive"],
  ["DVCRTQSFGVAKTVIFCFLF", "inactive"]
]}

INPUT: Would you mind telling me what amyloid nucleation score value was observed for "GSMIFFSICSHFLYLLHTYT" ?
OUTPUT: inactive

INPUT: Another: "FVRPFGRVFIFQKDFSIKVC"
OUTPUT: inactive

INPUT: Repeat with "VGLIWVVSFIDKNSYGWSGT"
OUTPUT: inactive

INPUT: Now the same for "SRVFARFDEEDRDNSRKRTV"
OUTPUT: inactive

INPUT: Here is the next substance: "PVLSYMRMSI"
OUTPUT: inactive

INPUT: Try this substance too: "ALTLMCFSVLGFYYVVMYCF"
OUTPUT: inactive

INPUT: Also need "VWAYFDMFDTFCYKVTARMK" , thanks.
OUTPUT: inactive

INPUT: Would you mind doing "RCDRVCGWGDRFNAGSGYRW" as well?
OUTPUT: inactive

* * *

Listing of recorded amyloid nucleation score by entry.
test: amyloid nucleation score (Sup35N fusion, yeast selection) (log enrichment); library NNK2; higher = more nucleation; inactive = no reads after selection

INPUT: Using the record for "AVKCVVEVTPWLDVKIKSFY" , report its amyloid nucleation score.
OUTPUT: -0.735

INPUT: Likewise for "LSMELNVYVERWWFSKLDRG" ?
OUTPUT: -1.26

INPUT: // repeat for "NCGKLHQF" and report
OUTPUT: 0.403

INPUT: For "DWLYMMKIARSPVVCRSRPS" then?
OUTPUT: 0.38

* * *

assay: amyloid nucleation score (Sup35N fusion, yeast selection) (log enrichment); library NNK1; higher = more nucleation; inactive = no reads after selection
Class (required): determined from amyloid nucleation score; valid ranges are low = under -0.3, middle = from -0.3 up to 2, high = 2 and over

{"columns": ["substance", "label-value"],
 "data": [
  ["DRSTIWSTHNSTYVVYYLVV", "high"],
  ["VIMLVNDAFVGI", "low"],
  ["RNSRAMIFEMHVVGLWWQSC", "low"]
]}

INPUT: Would you mind sorting "VKDASFRFAQQEGMRLRMQS" into the appropriate category?
OUTPUT: middle

INPUT: Same question for "DLVSTVKDGAECDDKEECSL" please.
OUTPUT: middle

INPUT: Also "ATCNNI" , if possible.
OUTPUT: low

* * *

experiment: amyloid nucleation score (Sup35N fusion, yeast selection) (log enrichment); library NNK1; higher = more nucleation; inactive = no reads after selection
Examples of substances with documented amyloid nucleation score follow.
I'd appreciate a reply containing only the number, no unit.

These recorded examples may help you get a feel for the data.
{"columns": ["substance", "parameter", "observed-measurement"],
 "data": [
  ["GVDRVRQCRARALDFSIGS", "amyloid nucleation score", -0.372],
  ["LVISETWGSCFWNSVDSCAG", "amyloid nucleation score", 0.815],
  ["DGSLKVELQR", "amyloid nucleation score", 1.14],
  ["INKNCTANEP", "amyloid nucleation score", -0.067],
  ["HCYGIVEFSSSCCEFFRHGV", "amyloid nucleation score", 6.36],
  ["VRVPCDIAIYMYGGLKALLS", "amyloid nucleation score", -0.245],
  ["LMYSNRYF", "amyloid nucleation score", 4.1],
  ["FSMVLSSTMDLRRELLWNSV", "amyloid nucleation score", -0.299],
  ["QLCGFITCIISMSLPGYQCE", "amyloid nucleation score", 7.82],
  ["GQTLALSYFTVLFSPMLNEW", "amyloid nucleation score", 0.169]
]}

INPUT: Form field: reported amyloid nucleation score of "GRFSVVAISHKQTFNFDWRT"
OUTPUT: 8.06

INPUT: For "IKYVQIGRRRLKWGGERRPL" then?
OUTPUT: 0.311

INPUT: Subsequent entry: "FTRQLWYMSICRYFQLPTFY"
OUTPUT: 1.95

INPUT: Please give the result for "NTVIVPHLIILLDYSKVWAE" too.
OUTPUT: 3.28

INPUT: # iterate: "HEGMLPIDVLRHSRPRQPFV"
OUTPUT: -0.686

INPUT: And what about the substance "RWSLAWKIMCEL" ?
OUTPUT: 0.055

INPUT: Do the same for "AQWVLMWYVRHVR" please
OUTPUT: 1.49

INPUT: Now this one: "ATAVYMSVLMVPDLRMKAEG"
OUTPUT: 1.5

INPUT: Check "HVHWPLLNNAYAS" too.
OUTPUT: 0.867

INPUT: Now this one: "WVLVSVH"
OUTPUT: 0.211

INPUT: Another substance to check: "IRRSIGVRAPWTFSEEDGSS"
OUTPUT: 0.6

INPUT: Now consider "QYYFDLIDLGITVDVMS" .
OUTPUT: 0.684

INPUT: Again, but for "VLYQRVRTGTTYGRARRLDV"
OUTPUT: -0.622

INPUT: Follow-up entry: "KLLDSSVVDSLRQHCEAGLR"
OUTPUT: 0.075

* * *

assay: amyloid nucleation score (Sup35N fusion, yeast selection) (log enrichment); library NNK2; higher = more nucleation; inactive = no reads after selection
parameter: amyloid nucleation score
Would you mind answering with just the numeric figure?

Use these answered entries as a reference point.
{"columns": ["sequence", "amyloid nucleation score"],
 "data": [
  ["IKCRVITQSCIPSSINRLDG", -0.114],
  ["TRYIADRAVVSNRC", 0.81],
  ["SSCPYYHGYNVRVMSCSHVI", 0.091],
  ["AMYICLRVIGSSGRSVMASK", 0.782],
  ["LQANWNDGPVGSSICAACSL", -0.746]
]}

INPUT: Which amyloid nucleation score is listed for "WWNITTEAPIFLIFCFTRQG" ?
OUTPUT: 4.8

INPUT: What do we get for "WGENARAESRTEEMLL" ?
OUTPUT: 1.81

* * *

assay: amyloid nucleation score (Sup35N fusion, yeast selection) (log enrichment); library NNK2; higher = more nucleation; inactive = no reads after selection
# amyloid nucleation score listing for each entry below
# output: bare number, no unit

Solved cases below.
{"columns": ["substance", "amyloid nucleation score"],
 "data": [
  ["DKGEEPELIV", 0.742],
  ["SVLQTTFVLVVGKTYNTSTD", 2.94],
  ["KFRCHGR", 0.785],
  ["LFMLYCFHLQDMKRVQICVH", 0.188],
  ["CLNRNGKEVTWVGLIC", 2.46]
]}

INPUT: Please report the recorded amyloid nucleation score for "GGWLAWVRKSYVIVFVWGGG" .
OUTPUT: 0.257

INPUT: Consider next the substance "FSHNTEFRVGCGYEFAVGKA" in the same way.
OUTPUT: -0.262

INPUT: What about "GKYCYPL" ?
OUTPUT: -0.81

INPUT: Now try "FISSMGRVW" .
OUTPUT: -1

INPUT: Same read-out for "FNCTRKNLCFFGIVYSSIIT" ?
OUTPUT: -0.86

INPUT: "FQPFVDLLDVVHRELGSLTR" ?
OUTPUT: 4.76
